Provenance of the data: the supplement of paper PMC12042874

- test_summary: amyloid nucleation score (Sup35N fusion, yeast selection) (log enrichment); library NNK3; higher = more nucleation; inactive = no reads after selection;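 note: zero at mode of non-aggregating sequences after 7 days selection at 30°C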
parameter: amyloid nucleation score

Worked examples, 5 substances total:
For this substance ( `KAVGRSIVYDFGSALCEMIN` ), measured amyloid nucleation score is 1.4

For this substance ( `IQGVAWVQKAWFSRKAGVQI` ), measured amyloid nucleation score is inactive

For this substance ( `EYESMI` ), measured amyloid nucleation score is inactive

For this substance ( `VIYVKSIMSFSLCDFDY` ), measured amyloid nucleation score is 3.11

For this substance ( `CKPDLMA` ), measured amyloid nucleation score is inactive

Further cases:
For this substance ( `SSLLYIDRIVLSRTVIPMLL` ), measured amyloid nucleation score is inactive

For this substance ( `RFWFWQPVVYIIRWIRVPLA` ), measured amyloid nucleation score is inactive

For this substance ( `GGAKVLTV` ), measured amyloid nucleation score is inactive

----------
- test_summary: amyloid nucleation score (Sup35N fusion, yeast selection) (log enrichment); library NNK3; higher = more nucleation; inactive = no reads after selection
parameter: amyloid nucleation score

Worked examples, 5 substances total:
For this substance ( `RRYSRIRYRRKLVNWLFYIM` ), measured amyloid nucleation score is inactive

For this substance ( `FQIWCIFYLNMS` ), measured amyloid nucleation score is 2

For this substance ( `MKCFSVSVLCNLGSFLCEVT` ), measured amyloid nucleation score is 0.146

For this substance ( `KWNHYWDIVFCTSYFNSTFM` ), measured amyloid nucleation score is 2.29

For this substance ( `ESMSHRGAPGRERVLRSNM` ), measured amyloid nucleation score is inactive

Further cases:
For this substance ( `RDPASGVSMCTIIIVKGYTI` ), measured amyloid nucleation score is 0.57

For this substance ( `FRYVREAGIGIVG` ), measured amyloid nucleation score is inactive

For this substance ( `RDTGPPMFWREAVSRYR` ), measured amyloid nucleation score is inactive

For this substance ( `LYLLSKRFHNLYLLDKVLKY` ), measured amyloid nucleation score is inactive

For this substance ( `NTYDAVISIACVSHQSICST` ), measured amyloid nucleation score is inactive

For this substance ( `YSGMGCFSAWSMW` ), measured amyloid nucleation score is inactive

For this substance ( `LRMVRSYVLSNGCL` ), measured amyloid nucleation score is inactive

For this substance ( `CLLNGDLHVEGWTLV` ), measured amyloid nucleation score is inactive

For this substance ( `ACTFITRMYCGWHSS` ), measured amyloid nucleation score is inactive

For this substance ( `TRILGYIFGAVSIVWLGVER` ), measured amyloid nucleation score is inactive

For this substance ( `FWLGDM` ), measured amyloid nucleation score is inactive

For this substance ( `MSWLKQGLTDR` ), measured amyloid nucleation score is inactive

----------
- test_summary: amyloid nucleation score (Sup35N fusion, yeast selection) (log enrichment); library NNK3; higher = more nucleation; inactive = no reads after selection
parameter: amyloid nucleation score

Worked examples, 5 sequences total:
For this sequence ( `RSQEVKTVGSLWQFFVSVLG` ), measured amyloid nucleation score is inactive

For this sequence ( `DQVAYRGKSVYSYKCKTRWG` ), measured amyloid nucleation score is inactive

For this sequence ( `ECRYRTRR` ), measured amyloid nucleation score is inactive

For this sequence ( `NNRFTGILPVWTMHE` ), measured amyloid nucleation score is inactive

For this sequence ( `IVCCGSGSEEVGKLSGRIKN` ), measured amyloid nucleation score is inactive

Further cases:
For this sequence ( `RIDTRNDRSNYR` ), measured amyloid nucleation score is inactive

For this sequence ( `LVFFFLWHSHENFNHDLVSK` ), measured amyloid nucleation score is inactive

For this sequence ( `DCWHLRQLWGVMSCQ` ), measured amyloid nucleation score is 0.48

For this sequence ( `SFCWASKSVHRSRG` ), measured amyloid nucleation score is inactive

For this sequence ( `MICESFVSLLLVKCELLGTA` ), measured amyloid nucleation score is inactive

For this sequence ( `LIELSSSPRSYGHQVLM` ), measured amyloid nucleation score is inactive

For this sequence ( `NLWVADWIEHHYPSRSSIFA` ), measured amyloid nucleation score is inactive

For this sequence ( `TGGRAPHRCVYSD` ), measured amyloid nucleation score is inactive

For this sequence ( `KIYGIPYCTRVGCNLWPGAG` ), measured amyloid nucleation score is 0.294

For this sequence ( `KCYLKSGLDNLVYDLD` ), measured amyloid nucleation score is inactive

For this sequence ( `IFIGVGNVGEVLVIYSWQRN` ), measured amyloid nucleation score is 0.035

For this sequence ( `SCMVNMSPVGWDSAGGEQGV` ), measured amyloid nucleation score is inactive
